# METHOD_NOTES: NCI Yeast Anticancer Drug Screen. Data for the mec2-1 strain (AID 157)
# RECORDED_CONDITIONS: S. cerevisiae mec2-1 strain, at 5.0 µM (retest, dose inferred, filed as 0.5)
The panel holds about 79,000 compounds, 15% with a hit somewhere; the sample as a whole holds those more often. The source made the active and inactive calls. No stated cut-off is given here; in the data, active means growth inhibition above about 70%; inactive means the rest.
In this exercise, the only acceptable responses are Yes (active), No (inactive)

Example cases with answers are listed next.
COMPOUND	CATEGORY_LABEL
O=C(O)c1ccc(NP(=O)(O)Oc2ccccc2)cc1 (tested in a mixture with another compound)	No
O=P(CCCCP(=O)(c1ccccc1)c1ccccc1)(c1ccccc1)c1ccccc1.[Cl][Sn]([Cl])([c]1ccccc1)[c]1ccccc1	No
ClC1=C(Cl)C(Cl)(Cl)SS1	Yes
c1ccc2c[n+](CCCCCCCCCC[n+]3ccc4ccccc4c3)ccc2c1	Yes
CCOP(=O)(OCC)Oc1cc(C)c(SC#N)c(C)c1	No
COc1ccc2c(c1O)-c1cccc3c1[C@@H](C2)N(CCCl)CC3	No
C=CO/C(C)=C(\[Se]c1ccccc1)C(C)=O	No
CC(=O)O[C@H]1C[C@@H]2OC3C=C(C)CCC3(C)[C@@]1(C)[C@@]21CO1 (stereo partly specified)	Yes

[ask] // return assay outcome for Cc1ccc(P(c2ccc(C)cc2)c2ccc(C)cc2)cc1
[reply] No

[ask] What outcome does the record of this test show for CCOCCOC(=O)Cc1ccccc1 ?
[reply] No

[ask] Please state the recorded outcome for this compound: CC[C@](C)(O)C(=O)O[C@H]1C(=O)O[C@@H]2C[C@H]3C(C)=CC(=O)[C@@H](O)[C@]3(C)[C@H]3[C@@]4(O)OC[C@]32[C@@H]1[C@@H](C)[C@H]4O
[reply] No

[ask] For this compound, state the assay outcome: CC(C)NCC(O)c1ccc(O)c(O)c1.[Pt].c1ccc([PH+](c2ccccc2)c2ccccc2)cc1.c1ccc([PH+](c2ccccc2)c2ccccc2)cc1
[reply] No

[ask] Each compound tested received a call. Report the one for [C-]#[O+].[C-]#[O+].[C-]#[O+].[Cl-].[Ru+2].c1ccc([PH+](CC[PH+](c2ccccc2)c2ccccc2)CC[PH+](c2ccccc2)c2ccccc2)cc1 .
[reply] No

[ask] Can you look up the reported call for [Cl][Sn]1([c]2ccccc2)[O]CCNCC[O]1 for me?
[reply] No

[ask] Please let me know the test result on file for CCOC(=O)N(C(=O)c1ccc([As]=O)cc1)C(=O)c1ccc([As]=O)cc1 (stereo unspecified) .
[reply] No

[ask] Called result for N#CC(C#N)=Cc1cccc([N+](=O)[O-])c1
[reply] No

[ask] What did the test return for O=C1C=CC(=O)C1(Br)Br ?
[reply] No

[ask] Give the logged outcome of this assay for the following compound: Cc1cc(N(CCCl)CCCl)ccc1CN1CCCN(Cc2ccc(N(CCCl)CCCl)cc2C)C1c1ccc(N(CCCl)CCCl)cc1C
[reply] No

[ask] // outcome(item) with item = COc1cc2c(cc1OC)C13CCN4CC5=CCOC6CC(=O)N2C1C6C5CC43 (stereo unspecified) (tested in a mixture with another compound)
[reply] No

[ask] Status in this test for COC(=O)C1=C(C)N2CCSC2(C)C(C(=O)OC)C1c1cccc(Cl)c1 (stereo unspecified) ?
[reply] No

[ask] Hi team, can someone confirm the assay call for O=C1CCC[N]1[Hg][N]1CCCC1=O ?
[reply] No

[ask] Tell me the recorded outcome of this test for C[CH2][Sn]1([CH2]C)[c]2ccccc2Oc2cccc[c]21 .
[reply] Yes

[ask] Which result was noted for this compound in the test: [Cl][Sn]([Cl])([c]1ccccc1)[c]1ccccc1.c1ccncc1.c1ccncc1
[reply] No

[ask] # lookup: test call for CCCCCCCCCCCCCCCCCC[N+](C)(C)C
[reply] Yes

[ask] What classification did C[C@]12CCc3nonc3C1CC[C@@H]1C2CC[C@]2(C)C(=O)CCC12 (stereo partly specified) end up with in this test?
[reply] No

[ask] Dear all, I need the recorded test outcome for CCC[CH2][Sn]1([CH2]CCC)[O]CC(CN(C)Cc2ccccc2)[O]1 (stereo unspecified) , thank you.
[reply] No

[ask] Test call, this compound: CCC1(O)C(=O)OCc2c1cc(C)[nH]c2=O (stereo unspecified)
[reply] No

[ask] Dear colleague, could you share the recorded outcome for COC1CC2C(C[CH]1[Hg][Cl])C2(Cl)Cl (stereo unspecified) when you have a moment?
[reply] Yes

[ask] So what was the verdict on [Cl][Hg].c1ccc([As]c2ccc(-c3ccccc3)cc2)cc1 (stereo unspecified) in this test?
[reply] Yes

Provenance of the data: PubChem BioAssay (NCI)
